I'd be grateful if you could share measured PBM E-score for these entries.
Target: Stp1 (UniProt B3LFK1)
Sequence: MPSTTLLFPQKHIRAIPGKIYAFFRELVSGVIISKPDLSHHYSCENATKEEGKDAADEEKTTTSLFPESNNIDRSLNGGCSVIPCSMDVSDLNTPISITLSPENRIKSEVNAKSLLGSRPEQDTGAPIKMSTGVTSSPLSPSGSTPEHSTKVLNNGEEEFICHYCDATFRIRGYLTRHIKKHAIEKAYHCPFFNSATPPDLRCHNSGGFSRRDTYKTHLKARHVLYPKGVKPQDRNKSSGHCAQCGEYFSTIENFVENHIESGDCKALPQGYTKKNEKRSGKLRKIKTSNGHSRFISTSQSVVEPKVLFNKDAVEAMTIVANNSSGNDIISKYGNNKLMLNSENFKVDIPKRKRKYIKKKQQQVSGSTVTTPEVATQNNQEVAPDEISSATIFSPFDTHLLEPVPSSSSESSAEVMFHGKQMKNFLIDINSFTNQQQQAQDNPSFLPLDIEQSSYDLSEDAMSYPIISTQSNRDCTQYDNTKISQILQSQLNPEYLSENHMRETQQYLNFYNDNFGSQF
Assay: PBM E-score (8-mer binding enrichment) (E-score (-0.5 to 0.5)); higher = stronger / more preferred TF binding
Settings: protein concentration: 200 nM; construct: GST-full length
In all, about 33,000 sequences were measured (“E-score (-0.5 to 0.5)”: median about -0.016, highest 2% from about 0.32 on). The entries come from a sample that favours the highest values as a whole.
No unit in the answer, only the number.

The reported PBM E-score of the sequence "CTCTTACC" was 0.201

The reported PBM E-score of the sequence "AGGAGGCG" was 0.201

The reported PBM E-score of the sequence "GTTGGGTA" was -0.109

The reported PBM E-score of the sequence "ATGTGCGG" was 0.213

The reported PBM E-score of the sequence "AGGTGCCA" was -0.0228

The reported PBM E-score of the sequence "ATGTGGCC" was 0.0349

The reported PBM E-score of the sequence "GATGCGGC" was 0.47

The reported PBM E-score of the sequence "TCGTGCAA" was 0.288

The reported PBM E-score of the sequence "CCGTGCAA" was 0.325

The reported PBM E-score of the sequence "ATCGTAGG" was -0.121

The reported PBM E-score of the sequence "ACAAATGC" was 0.155

The reported PBM E-score of the sequence "ATAAAGGG" was 0.0416

The reported PBM E-score of the sequence "ACGAGGCC" was 0.016

The reported PBM E-score of the sequence "ATCCTAGC" was -0.102

###

Molecular target: Stp1 (UniProt B3LFK1)
Sequence: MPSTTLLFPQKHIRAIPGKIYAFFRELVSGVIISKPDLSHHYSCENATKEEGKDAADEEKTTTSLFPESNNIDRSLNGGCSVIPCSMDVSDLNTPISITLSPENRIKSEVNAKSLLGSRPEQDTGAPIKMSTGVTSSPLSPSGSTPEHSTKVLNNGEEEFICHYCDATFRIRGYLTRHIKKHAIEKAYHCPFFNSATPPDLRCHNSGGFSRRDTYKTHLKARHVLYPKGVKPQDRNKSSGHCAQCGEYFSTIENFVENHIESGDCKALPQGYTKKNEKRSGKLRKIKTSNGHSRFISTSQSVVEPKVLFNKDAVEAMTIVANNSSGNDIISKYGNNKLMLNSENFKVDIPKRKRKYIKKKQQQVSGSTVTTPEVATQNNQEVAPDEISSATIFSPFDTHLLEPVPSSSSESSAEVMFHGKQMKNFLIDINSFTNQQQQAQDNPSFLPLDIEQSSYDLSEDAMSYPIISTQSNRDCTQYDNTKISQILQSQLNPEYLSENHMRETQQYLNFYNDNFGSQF
Experiment: PBM E-score (8-mer binding enrichment) (E-score (-0.5 to 0.5)); higher = stronger / more preferred TF binding
Conditions: protein concentration: 200 nM; construct: GST-full length
Whole data set: some 33,000 sequences, median “E-score (-0.5 to 0.5)” near -0.016, cut for the highest 2% near 0.32. The entries come from a sample that favours the highest values as a whole.
reported-property: PBM E-score
No unit in the answer, only the number.

The reported PBM E-score of the sequence "CTGTGATC" was -0.0819

The reported PBM E-score of the sequence "CCTTGCGC" was 0.138

The reported PBM E-score of the sequence "AACGGCTT" was 0.366

The reported PBM E-score of the sequence "GTAACTAA" was 0.0925

The reported PBM E-score of the sequence "ATTCGCCC" was -0.0713

The reported PBM E-score of the sequence "CCGCACGA" was 0.27

The reported PBM E-score of the sequence "ACGGCCCA" was 0.333

The reported PBM E-score of the sequence "ACTGCGCT" was -0.19

The reported PBM E-score of the sequence "CCTCGGCA" was 0.282

The reported PBM E-score of the sequence "AACGGGCT" was -0.293

The reported PBM E-score of the sequence "GAGTGCGA" was -0.046

The reported PBM E-score of the sequence "CGGCGATA" was 0.395

The reported PBM E-score of the sequence "ACCGGCTC" was -0.0667

The reported PBM E-score of the sequence "GCATGAGA" was 0.151

The reported PBM E-score of the sequence "CCCCGCCC" was 0.139

The reported PBM E-score of the sequence "CTAAACGA" was 0.0761

The reported PBM E-score of the sequence "CTAGAAAA" was -0.0127

The reported PBM E-score of the sequence "CAGCACGC" was 0.145

The reported PBM E-score of the sequence "ACGCACGA" was 0.237

The reported PBM E-score of the sequence "ACGCACGG" was 0.419

The reported PBM E-score of the sequence "AGGCAGAG" was -0.00743

The reported PBM E-score of the sequence "TATCGAGA" was -0.0215

The reported PBM E-score of the sequence "CTCCTGCA" was -0.244

The reported PBM E-score of the sequence "AGGCGATA" was 0.0637

The reported PBM E-score of the sequence "CCGGCGAC" was -0.167

The reported PBM E-score of the sequence "GTGTGTTA" was 0.029

The reported PBM E-score of the sequence "TATCAGAA" was 0.22

The reported PBM E-score of the sequence "AGAACGCT" was -0.11

The reported PBM E-score of the sequence "CATAGGGC" was 0.152

The reported PBM E-score of the sequence "ACCGACGA" was -0.0695

The reported PBM E-score of the sequence "TCAAAGAA" was -0.0561

The reported PBM E-score of the sequence "GTTCAAGA" was 0.0574

The reported PBM E-score of the sequence "AAGTCTGT" was -0.193

The reported PBM E-score of the sequence "CCGCACGC" was 0.323

The reported PBM E-score of the sequence "CTGGAAAG" was -0.15

The reported PBM E-score of the sequence "CGACTACC" was -0.22
